Entry source: patent US20050124607A1

// values below are reported melting point
Where a name gives a salt, the structure may show the parent alone.
Measurement label: melting point

Compound	Observed
COc1cc2[nH]c(N3CCc4c(cccc4NC(=N)C4CCC4)C3)nc(=O)c2c(C)c1OC	252.1 to 256.1 °C
COc1cc2c(cc1OC)CN(c1nc(=O)c3c(OC(C)C)c(OC)c(OC)cc3[nH]1)CC2 (as salt: HCl)	253.3 to 261.9 °C
COc1cc2[nH]c(N3CCc4c(cccc4NC(=N)c4ccco4)C3)nc(=O)c2c(C)c1OC	279 to 282 °C
COc1cc2c(cc1OC)CN(c1nc(=O)c3c(Oc4ccccc4)c(OC)c(OC)cc3[nH]1)CC2	238.7 to 241.9 °C
